# methodDescription: Probe fluorescence ratio response to stearic acid relative to ADIFAB2
# Type: binding
# testConditions: response relative to ADIFAB2
endpointName: DR/DR SA

- molecule: "18V 31A 55I 72A (protein, listed as Rattus norvegicus, PEPTIDE (1)...(131) wild-type rat intestinal fatty acid binding protein) AFDGTWKVDRNENYEKFVEKMGINVVKRKLAAHDNLKLTITQEGNKFTVKESSNIRNIDVVFELGVDFAYSAADGTELTGTWTMEGNKLVGKFKRVDNGKELIAVREISGNELIQTYTYEGVEAKRIFKKE"
  endpointName: "DR/DR SA"
  assayResult: 0.420
- molecule: "104T 115A 74F 72A (protein, listed as Rattus norvegicus, PEPTIDE (1)...(131) wild-type rat intestinal fatty acid binding protein) AFDGTWKVDRNENYEKFMEKMGINVVKRKLGAHDNLKLTITQEGNKFTVKESSNFRNIDVVFELGVDFAYSAAFGTELTGTWTMEGNKLVGKFKRVDNGKELITVREISGNELIATYTYEGVEAKRIFKKE"
  endpointName: "DR/DR SA"
  assayResult: 0.877
- molecule: "72T 73V 74L (protein, listed as Rattus norvegicus, PEPTIDE (1)...(131) wild-type rat intestinal fatty acid binding protein) AFDGTWKVDRNENYEKFMEKMGINVVKRKLGAHDNLKLTITQEGNKFTVKESSNFRNIDVVFELGVDFAYSTVLGTELTGTWTMEGNKLVGKFKRVDNGKELIAVREISGNELIQTYTYEGVEAKRIFKKE"
  endpointName: "DR/DR SA"
  assayResult: 1.411

// provenance: patent US20060257938A1
